# Test system: HOP-62
# PROTOCOL TEXT: relative viability (nuclei count vs DMSO), 5 days (fraction); higher = more cells survive
# EXPERIMENTAL SETUP: first compound 20 µM
ASSAY METRIC: relative viability
Number only, please.

## Input I would be grateful if you could share the reported relative viability for COCC1(CO)C(=O)C2CCN1CC2 (stereo not given) [PRIMA-1MET] + CC(C)C[C@H](NC(=O)[C@H](Cc1ccccc1)NC(=O)c1cnccn1)B(O)O [Bortezomib] (partner 0.002 µM) .
## Output 0.443

## Input I would be grateful if you could share the reported relative viability for COCC1(CO)C(=O)C2CCN1CC2 (stereo not given) [PRIMA-1MET] + Cc1nc(NC(=O)N2CCC[C@H]2C(N)=O)sc1-c1ccnc(C(C)(C)C(F)(F)F)c1 [Alpelisib] (partner 2 µM) .
## Output 0.487

## Input I would be grateful if you could share the reported relative viability for COCC1(CO)C(=O)C2CCN1CC2 (stereo not given) [PRIMA-1MET] + CS(=O)(=O)N1CCN(Cc2cc3nc(-c4cccc5[nH]ncc45)nc(N4CCOCC4)c3s2)CC1 [Pictilisib] (partner 1 µM) .
## Output 0.392

## Input I would be grateful if you could share the reported relative viability for COCC1(CO)C(=O)C2CCN1CC2 (stereo not given) [PRIMA-1MET] + Nc1nc2[nH]cc(CCc3ccc(C(=O)N[C@@H](CCC(=O)O)C(=O)O)cc3)c2c(=O)[nH]1 [Pemetrexed] (partner 0.2 µM) .
## Output 0.122

## Input I would be grateful if you could share the reported relative viability for COCC1(CO)C(=O)C2CCN1CC2 (stereo not given) [PRIMA-1MET] + NC(=O)Nc1cc(-c2cccc(F)c2)sc1C(=O)N[C@H]1CCCNC1 [AZD7762] (partner 0.2 µM) .
## Output 0.273

Data credit: the supplement of paper PMC10307832
